Listed here: items and their measured composite z-score.
procedure-details: small-molecule microarray binders of probe aCHRDL2, primary screen, biochemical, biotinylated probe, 635/667 nm fluorescence (AID 1100)
stated-conditions: higher = more signal

{"compound": "CCOC(=O)C[C@H]1[C@H](OC(=O)c2cc3ccccc3oc2=O)[C@@H](NC(=O)c2ccc3ccccc3c2)c2cc(OCCCO)ccc2N1C(=O)c1ccc2ccccc2n1", "composite z-score": -0.19}
{"compound": "C=CCC(OC(C)=O)[C@@H]1[C@@H](N(Cc2ccc(-c3cccc(C(F)(F)F)c3)o2)C(=O)Cc2ccc(F)cc2)c2cc(OCCCO)ccc2N1C(=O)c1ccc(-c2ccccc2)cc1 (stereo partly drawn)", "composite z-score": 0.494}
{"compound": "COC(=O)C(CC#Cc1ccc2c(c1)[C@]1(C(=O)N2)[C@H](C(=O)N2CCCCCCC2)[C@H]2C(=O)O[C@H](c3ccccc3)[C@H](c3ccccc3)N2[C@@H]1c1ccc(O)cc1)C(=O)OC", "composite z-score": 0.269}

###

tgt: Luciferin 4-monooxygenase (Photinus pyralis)
procedure-details: firefly luciferase enzyme inhibitors, primary screen, biochemical, luminescence, purified enzyme, 2006 set (AID 1141);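 also: cell-free assay with purified firefly luciferase at 100 ng per well in PBS; test concentration not given here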
stated-conditions: SteadyGlo luminescence, 30 min, higher = more signal, called active from +8 up or from −8 down
Give T when the value for z-score is at least -0.4. Give F when it is less.

{"compound": "CCOC(=O)C[C@H]1[C@H](OC(=O)c2ccccc2-c2ccccc2)[C@@H](NC(=O)c2ccc(-c3ccccc3)cc2)c2cc(OCCCO)ccc2N1C(=O)Cc1ccc(OC)cc1", "label": "T"}
{"compound": "C[N+](C)(C)CCCCNC(=O)[C@H]1C[C@H]2C(=O)NCC(=O)N2[C@H]1c1cccc(OCCO)c1", "label": "T"}
{"compound": "C#CCNC(/C=C/c1ccccc1)CO (stereo not given)", "label": "T"}
{"compound": "CCCCO[C@H]1C[C@H]2C(Br)=C[C@@]1(CO)C(=O)[C@]21CO1", "label": "F"}
{"compound": "CCN1C(C)=C(C(=O)OC)[C@@H](c2ccccc2)N2C(=O)[C@@]3(C(=O)OC)O[C@@]12[C@@H]1C(=O)N(c2ccccc2)C(=O)[C@@H]13", "label": "F"}
{"compound": "CO[C@H]1COC(=O)CC=C[C@H](C)COC(=O)[C@@H](OCc2ccccc2)C=C[C@@H]1C", "label": "T"}
{"compound": "COc1ccc(-c2cc3c(c(-c4ccccc4)n2)[Si](C(C)C)(C(C)C)O[C@H]3c2ccccc2)cn1", "label": "T"}
{"compound": "C=CCN1C(=O)[C@@]2(Cc3ccccc3)N=C(c3ccc(OCCCO)cc3)O[C@H]2c2ccccc21", "label": "F"}
{"compound": "O=C1C[C@@](C(=O)NCCN2CCOCC2)(c2ccc([N+](=O)[O-])cc2)[C@@H](c2ccc(CO)cc2)N1C1CCCCC1", "label": "F"}
{"compound": "CCCC[C@H]1OB(O)C[C@H]2C1=C(COC)C[C@H]1C(=O)N(Cc3ccccc3)C(=O)[C@H]12", "label": "F"}
{"compound": "CN1C(=O)C2C=CC(C(O)C3CC=CCC3)N(Nc3ccccc3)C2C1=O (stereo not given)", "label": "T"}
{"compound": "COCCCNC(=O)[C@@H]1c2ccccc2C(=O)N(CC23CC4CC(CC(C4)C2)C3)[C@H]1c1ccc(CO)cc1", "label": "T"}
{"compound": "CO[C@H]1COC(=O)[C@H](C)NC(=O)CC=C[C@@H](C)[C@H](NS(=O)(=O)c2ccc(C)cc2)COC(=O)[C@@H](OCc2ccccc2)C=C[C@@H]1C", "label": "F"}
{"compound": "O=C1O[C@H](c2ccccc2)[C@H](c2ccccc2)N2[C@H]1[C@@H](C(=O)Nc1nc3ccccc3s1)[C@]1(C(=O)Nc3ccc(C#CC4(O)CCCCCC4)cc31)[C@H]2c1ccc(O)cc1", "label": "F"}
